# TEST TARGET: hPK-M2 (Homo sapiens)
# Sequence (P14618 whole entry): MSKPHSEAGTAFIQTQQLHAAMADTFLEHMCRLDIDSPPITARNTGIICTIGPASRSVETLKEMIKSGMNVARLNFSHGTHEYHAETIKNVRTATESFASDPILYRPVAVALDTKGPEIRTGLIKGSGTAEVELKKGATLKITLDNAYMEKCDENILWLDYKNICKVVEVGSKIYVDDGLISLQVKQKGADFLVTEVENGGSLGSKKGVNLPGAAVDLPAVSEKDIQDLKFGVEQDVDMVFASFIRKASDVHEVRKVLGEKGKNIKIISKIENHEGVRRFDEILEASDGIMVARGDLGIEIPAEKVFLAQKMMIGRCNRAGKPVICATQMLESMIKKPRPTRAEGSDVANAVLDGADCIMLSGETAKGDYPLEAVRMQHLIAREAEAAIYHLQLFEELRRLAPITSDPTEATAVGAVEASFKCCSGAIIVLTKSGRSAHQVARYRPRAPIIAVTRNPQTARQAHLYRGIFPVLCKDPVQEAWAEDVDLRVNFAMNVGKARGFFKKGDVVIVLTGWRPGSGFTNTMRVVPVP
# METHOD: Luminescent pyruvate kinase-luciferase coupled assay (KinaseGlo)
# Format: biochemical
# MEASUREMENT SETUP: KinaseGlo; % activation at 57 μM of compound
QUANTITY NAME: hPK, M2 Max. Res. (%)

Some entries whose results are on file:
[
  {
    "QUERY SMILES": "Nc1cccc(S(=O)(=O)N2CCN(S(=O)(=O)c3ccc4c(c3)OCCO4)CC2)c1",
    "hPK, M2 Max. Res., %": 82.08
  },
  {
    "QUERY SMILES": "COc1cc(F)c(S(=O)(=O)N2CCN(S(=O)(=O)c3cccs3)CC2)c(F)c1",
    "hPK, M2 Max. Res., %": 95.08
  }
]

1. Nc1cc(S(=O)(=O)N2CCN(S(=O)(=O)c3ccc4c(c3)OCCO4)CC2)ccn1
2. CN(C)c1cccc(S(=O)(=O)N2CCN(S(=O)(=O)c3ccc4c(c3)OCCO4)CC2)c1
Lab notebook, comparison: 1 versus 2 , higher hPK, M2 Max. Res. goes to which? Write down the label attached to your selection. 1

###

# TEST TARGET: UniProt:P14618
# METHOD: Luminescent pyruvate kinase-luciferase coupled assay (KinaseGlo)
# Assay type: biochemical
# MEASUREMENT SETUP: luminescent pyruvate kinase-luciferase coupled assay (KinaseGlo), tables; read-out: hPK, M2 AC50
QUANTITY NAME: AC50 (nM)

a. O=S(=O)(NCCCCNS(=O)(=O)c1c(F)cccc1F)c1ccc2c(c1)OCCO2
b. O=S(=O)(c1ccc2c(c1)OCCO2)N1CCN(S(=O)(=O)c2cc(F)c(F)cc2F)CC1
c. C[C@H]1CN(S(=O)(=O)c2c(F)cccc2F)CCN1S(=O)(=O)c1ccc2c(c1)OCCO2
d. Nc1cccc(S(=O)(=O)N2CCN(S(=O)(=O)c3ccc4c(c3)OCCO4)CC2)c1
e. COc1cc(F)c(S(=O)(=O)N2CCCN(S(=O)(=O)c3cccc(N)c3)CC2)c(F)c1
Exam item: list the entries in increasing order of AC50. Labels, requested order. d, b, e, c, a

###

# TEST TARGET: UniProtKB P14618
# METHOD: Fluorescent pyruvate kinase-lactate dehydrogenase (LDH) coupled secondary assay
# Type: biochemical
# MEASUREMENT SETUP: read-out: AC50, LDH assay
QUANTITY NAME: AC50 (nM)

[
  {
    "COMPOUND": "COc1ccc(Cn2ncc3c4sc(C)cc4n(C)c3c2=O)cc1F [Compound 121]",
    "UNIT TAG": "nM",
    "AC50": 1000
  },
  {
    "COMPOUND": "O=C1CN(S(=O)(=O)c2c(F)cccc2F)CCN1S(=O)(=O)c1ccc2c(c1)OCCO2 [Compound 49]",
    "UNIT TAG": "nM",
    "AC50": 440
  },
  {
    "COMPOUND": "COc1ccc(Cn2ncc3c4sc(C)cc4n(C)c3c2=O)cc1 [Compound 111]",
    "UNIT TAG": "nM",
    "AC50": 230
  },
  {
    "COMPOUND": "Cc1cc2c(s1)c1cnn(Cc3ccc(F)cc3F)c(=O)c1n2C [Compound 112]",
    "UNIT TAG": "nM",
    "AC50": 170
  },
  {
    "COMPOUND": "COc1ccc(S(=O)(=O)N2CCN(S(=O)(=O)c3ccc4c(c3)OCCO4)CC2)cc1 [Compound 1]",
    "UNIT TAG": "nM",
    "AC50": 300
  }
]

a. COc1ccc(S(=O)(=O)N2CCN(S(=O)(=O)c3c(F)cccc3F)CC2)cc1 [Compound 21]
b. O=S(=O)(N[C@H]1CC[C@@H](NS(=O)(=O)c2c(F)cccc2F)CC1)c1ccc2c(c1)OCCO2 [Compound 38]
Please state the entry with greater AC50 among a and b . To answer, give the label that identifies your chosen option. b
